Some compounds, each annotated with its measured SI PRMT8 (Figure 5 heatmap).
# Experimental System: PRMT4 (Homo sapiens, UniProt Q86X55)
# Sequence (Q86X55 2-608): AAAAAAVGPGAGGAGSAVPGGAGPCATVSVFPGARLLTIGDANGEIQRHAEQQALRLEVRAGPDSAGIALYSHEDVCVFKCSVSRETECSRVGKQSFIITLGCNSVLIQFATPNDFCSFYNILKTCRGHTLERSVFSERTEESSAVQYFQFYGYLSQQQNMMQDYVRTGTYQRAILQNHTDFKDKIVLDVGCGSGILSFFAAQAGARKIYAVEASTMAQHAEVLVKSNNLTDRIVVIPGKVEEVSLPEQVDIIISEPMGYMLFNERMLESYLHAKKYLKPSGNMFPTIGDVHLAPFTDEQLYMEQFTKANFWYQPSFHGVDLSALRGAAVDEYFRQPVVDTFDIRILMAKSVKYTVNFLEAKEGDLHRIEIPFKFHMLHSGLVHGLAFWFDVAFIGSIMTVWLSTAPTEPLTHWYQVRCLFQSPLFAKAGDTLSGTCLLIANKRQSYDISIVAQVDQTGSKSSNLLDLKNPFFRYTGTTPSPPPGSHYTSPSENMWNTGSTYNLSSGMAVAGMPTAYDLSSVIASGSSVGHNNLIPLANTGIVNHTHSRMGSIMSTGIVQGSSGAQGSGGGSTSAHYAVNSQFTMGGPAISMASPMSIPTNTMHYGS
# Test Details: Radioisotope-based filter-binding (HotSpot) assay, PRMT4
# Conditions: selectivity index for PRMT4 over PRMT8
Field: value (include unit after the number)

Some solved entries appear below for comparison.
>>> endpoint_value("COC(=O)c1cc(O)c2cc(NC(=O)NCCCCNC(=N)NCCC[C@H]3O[C@@H](n4cnc5c(N)ncnc54)[C@H](O)[C@@H]3O)ccc2c1 [12g]")
"168 fold"
>>> endpoint_value("COC(=O)c1cc(O)c2cc(NC(=O)NCCCCNC(=N)NCC[C@H]3O[C@@H](n4cnc5c(N)ncnc54)[C@H](O)[C@@H]3O)ccc2c1 [12f]")
"619 fold"
>>> endpoint_value("COC(=O)c1cc(O)c2cc(NC(=O)NCCCCCCCNC(=N)NC[C@H]3O[C@@H](n4cnc5c(N)ncnc54)[C@H](O)[C@@H]3O)ccc2c1 [12e]")
"33 fold"

Proceed to the following item.
Query :: Name the recorded SI PRMT8 (Figure 5 heatmap) for COC(=O)c1cc(O)c2cc(NC(=O)NCCCCCNC(=N)NC[C@H]3O[C@@H](n4cnc5c(N)ncnc54)[C@H](O)[C@@H]3O)ccc2c1 [12c] .
Result :: 14 fold

* * *

Form field: SI PRMT7 (Figure 5 heatmap) (one value per entry).
# Experimental System: PRMT4 (Homo sapiens, UniProt Q86X55)
# Test Details: Radioisotope-based filter-binding (HotSpot) assay, PRMT4
# Conditions: selectivity index for PRMT4 over PRMT7
Write it as a number; the unit fold goes unstated.

Query :: Any idea what its SI PRMT7 (Figure 5 heatmap) is? The compound is COC(=O)c1cc(O)c2cc(NC(=O)NCCCCCNC(=N)NC[C@H]3O[C@@H](n4cnc5c(N)ncnc54)[C@H](O)[C@@H]3O)ccc2c1 [12c]
Result :: 0.52

Query :: Look up SI PRMT7 (Figure 5 heatmap): COC(=O)c1cc(O)c2cc(NC(=O)NCCCCNC(=N)NCC[C@H]3O[C@@H](n4cnc5c(N)ncnc54)[C@H](O)[C@@H]3O)ccc2c1 [12f]
Result :: 23

Query :: Need SI PRMT7 (Figure 5 heatmap), item COC(=O)c1cc(O)c2cc(NC(=O)NCCCCCCCNC(=N)NC[C@H]3O[C@@H](n4cnc5c(N)ncnc54)[C@H](O)[C@@H]3O)ccc2c1 [12e]
Result :: 4

Query :: Tell me the measured SI PRMT7 (Figure 5 heatmap) of COC(=O)c1cc(O)c2cc(NC(=O)NCCCCNC(=N)NCCC[C@H]3O[C@@H](n4cnc5c(N)ncnc54)[C@H](O)[C@@H]3O)ccc2c1 [12g] , please.
Result :: 557
